Tested on: Plasmodium falciparum chloroquine-resistant strain W2
Test: In vitro screening against Plasmodium falciparum W2 (flow cytometry, 48 h)
Type: cell-based
Details: Plasmodium falciparum, W2, 48 h, W2 strain, 48 h, triplicate; read-out: P. falciparum W2 IC50±SD
IC50 values by entry
Write it as a number; the unit µM goes unstated.

{"columns": ["compound", "recorded.endpoint", "observed"],
 "data": [
  ["COC(=O)c1c(O)ccc(O)c1O [Compound 2, 2,3,6-trihydroxy methyl benzoate]", "IC50", 13]
]}

Pending compound:
Q: Under Plasmodium falciparum chloroquine-resistant strain W2: IC50 value of O=C(O)c1c(O)ccc(O)c1O [Compound 1, 2,3,6-trihydroxy benzoic acid] ?
Ans: 16.5

Origin of values: paper PMC3519527
